The reported numbers originate from patent US9670220B2.

# assayed.system: human S1P1 receptor (Homo sapiens (Human))
# Sequence (P21453 whole entry): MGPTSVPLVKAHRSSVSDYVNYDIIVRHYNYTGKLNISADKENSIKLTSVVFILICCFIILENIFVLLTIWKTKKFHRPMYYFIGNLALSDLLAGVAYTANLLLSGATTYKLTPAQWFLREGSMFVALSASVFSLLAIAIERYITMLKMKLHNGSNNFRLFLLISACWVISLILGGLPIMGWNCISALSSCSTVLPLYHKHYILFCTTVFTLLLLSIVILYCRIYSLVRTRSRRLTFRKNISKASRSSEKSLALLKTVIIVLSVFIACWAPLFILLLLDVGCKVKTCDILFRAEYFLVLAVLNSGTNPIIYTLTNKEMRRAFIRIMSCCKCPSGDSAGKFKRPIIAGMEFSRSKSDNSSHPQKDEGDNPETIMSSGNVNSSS
# setup.conditions: agonism, determined using method A (aequorin)
recorded.endpoint: S1P1^A pEC50

O=C(O)C1CC(N2CCc3oc(-c4ccc(OCc5ccc(OC(F)(F)F)cc5)cc4)nc3C2)C1 (stereo not drawn) [Compound 307]	<5
O=C(O)C1CC(N2CCc3oc(-c4ccc(OCc5ccc(F)c(F)c5)cc4)nc3C2)C1 (stereo not drawn) [Compound 277]	5.2
O=C(O)CCCN1CCc2oc(-c3ccc(OCc4ccccc4F)c(Cl)c3)nc2C1	<4.5
O=C(O)C1CC(N2CCc3oc(-c4ccc(OCc5ccc(OC(F)(F)F)cc5)cc4)nc3C2)C1 (stereo not drawn) [Compound 306]	<5
O=C(O)C1CC(N2CCc3oc(-c4ccc(OCc5ccc(F)c(F)c5)cc4)nc3C2)C1 (stereo not drawn) [Compound 278]	<5

Can you look up the measured S1P1^A pEC50 of `O=C(O)CCCN1CCc2oc(-c3ccc(OCc4ccccc4)cc3)nc2C1` for me?
<4.5

----------
# assayed.system: human S1P3 receptor (Homo sapiens (Human), UniProt Q99500)
# Sequence (Q99500 whole entry): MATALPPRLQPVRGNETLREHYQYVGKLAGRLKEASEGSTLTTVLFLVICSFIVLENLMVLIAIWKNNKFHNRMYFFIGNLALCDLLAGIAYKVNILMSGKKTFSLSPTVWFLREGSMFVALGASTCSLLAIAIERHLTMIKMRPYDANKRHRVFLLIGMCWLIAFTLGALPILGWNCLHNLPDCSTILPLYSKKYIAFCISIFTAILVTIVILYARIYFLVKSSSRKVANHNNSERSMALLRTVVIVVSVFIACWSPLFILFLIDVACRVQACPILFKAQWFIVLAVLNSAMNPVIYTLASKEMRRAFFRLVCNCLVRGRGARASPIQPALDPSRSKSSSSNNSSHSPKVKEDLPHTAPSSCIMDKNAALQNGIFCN
# assay.method.text: In vitro functional activity (agonism) on human S1P3 receptors, CHO-human-S1P3-Aequorin assay
# Format: cell-based
# setup.conditions: aequorin luminescence
recorded.endpoint: S1P3 pEC50

CC(CN1CCc2oc(-c3ccc(OCc4ccc(C(F)(F)F)cc4)cc3F)nc2C1)C(=O)O (stereo not drawn) [Compound 271]	5.4
O=C(O)C1CC(N2CCc3oc(-c4ccc(OCc5ccc(OC(F)(F)F)cc5)cc4)nc3C2)C1 (stereo not drawn) [Compound 306]	<5.0
CC(CN1CCc2oc(-c3ccc(OCc4ccc(Cl)cc4)cc3)nc2C1)C(=O)O (stereo not drawn) [Compound 157]	5.3
O=C(O)CCCN1CCc2oc(-c3ccc(OCc4cccc(F)c4F)cc3)nc2C1 [Compound 57]	<5

Can you look up the measured S1P3 pEC50 of O=C(O)C1CC(N2CCc3oc(-c4ccc(OCc5ccc(OC(F)(F)F)cc5)cc4)nc3C2)C1 (stereo not drawn) [Compound 307] for me?
<5.0

Can you look up the measured S1P3 pEC50 of CC(CN1CCc2oc(-c3ccc(OCc4ccc(C(F)(F)F)cc4)cc3)nc2C1)C(=O)O (stereo not drawn) [Compound 156] for me?
5.5

Can you look up the measured S1P3 pEC50 of O=C(O)CCCN1CCc2oc(-c3ccc(OCc4ccccc4F)cc3F)cc2C1 [Compound 73] for me?
6.3

Can you look up the measured S1P3 pEC50 of O=C(O)C1CC(N2CCc3oc(-c4ccc(OCc5ccc(F)c(F)c5)cc4)nc3C2)C1 (stereo not drawn) [Compound 278] for me?
<5

Can you look up the measured S1P3 pEC50 of CC(CC(=O)O)N1CCc2oc(-c3ccc(OCc4cccc(F)c4F)cc3)nc2C1 (stereo not drawn) [Compound 175] for me?
5.8

Can you look up the measured S1P3 pEC50 of O=C(O)C1CC(N2CCc3oc(-c4ccc(OCc5ccc(F)c(F)c5)cc4)nc3C2)C1 (stereo not drawn) [Compound 277] for me?
<5.0

Can you look up the measured S1P3 pEC50 of CC(CN1CCc2oc(-c3ccc(OCc4ccccc4)cc3)nc2C1)C(=O)O (stereo not drawn) [Compound 146] for me?
<5.0

Can you look up the measured S1P3 pEC50 of O=C(O)CCCN1CCc2oc(-c3ccc(OCc4ccc(Cl)cc4)c(F)c3)nc2C1 [Compound 211] for me?
<5.0

Can you look up the measured S1P3 pEC50 of O=C(O)CCCN1CCc2oc(-c3ccc(OCc4ccccc4)cc3)nc2C1 [Compound 53] for me?
<5

Can you look up the measured S1P3 pEC50 of Cc1cc(OCc2ccccc2F)ccc1-c1nc2c(o1)CCN(CCCC(=O)O)C2 [Compound 89] for me?
<5.0

Can you look up the measured S1P3 pEC50 of O=C(O)CCCN1CCc2oc(-c3ccc(OCc4ccccc4F)c(Cl)c3)nc2C1 [Compound 283] for me?
<5

Can you look up the measured S1P3 pEC50 of O=C(O)CCCN1CCc2oc(-c3ccc(OCc4ccc(C(F)(F)F)cc4)cc3F)nc2C1 [Compound 85] for me?
6.3

Can you look up the measured S1P3 pEC50 of O=C(O)CCN1CCc2oc(-c3ccc(OCc4ccccc4)cc3)nc2C1 [Compound 47] for me?
<5

Can you look up the measured S1P3 pEC50 of O=C(O)CCCN1CCc2oc(-c3ccc(OCc4ccc(Cl)c(Cl)c4)cc3F)nc2C1 [Compound 227] for me?
<6.0
